assay-overview: Hematology assays in cynomolgus monkeys (Example 45)
Format: in vivo
assay-setup: day 71
Think of 0.9% as a floor: if eosinophils stands on it or above, it is yes; beneath it, no.

*Q* Can ISIS 416850: MOE gapmer, nucleobases 1275 to 1318 of SEQ ID NO: 1 (Table 8) (antisense TGCACAGTTTCTGGCAGGCC; MOE gapmer, wing and gap sizes not given here) be said to have eosinophils at or above 0.9%?
*A* yes

----------
assay-overview: Hematology assays in cynomolgus monkeys (Example 45)
Type: in vivo
assay-setup: day 22; escalating dose regimen
This listing pairs substances with measured hemoglobin.
Expressed in g/dL, but write only the number.

*Q* Bench note: what hemoglobin did ISIS 416850: MOE gapmer, nucleobases 1275 to 1318 of SEQ ID NO: 1 (Table 8) (antisense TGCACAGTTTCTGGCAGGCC; MOE gapmer, wing and gap sizes not given here) show?
*A* 11.6

Consider the additional substance presented here.
*Q* Tell me the measured hemoglobin of ISIS 416858: MOE gapmer, nucleobases 1275 to 1318 of SEQ ID NO: 1 (Table 8) (antisense ACGGCATTGGTGCACAGTTT; MOE gapmer, wing and gap sizes not given here) , please.
*A* 12.4

----------
assay-overview: Liver function, ALT, AST, bilirubin in cynomolgus monkeys (Example 46)
Type: in vivo
assay-setup: Day 31; plasma
Strand notation (5' to 3'): a small letter for the sugar, then the base; units joined by * are phosphorothioate-linked, units joined directly phosphodiester-linked; [ ] holds rarer units or linkages, { } end groups; capitals alone tell only the bases. e = 2'-O-(2-methoxyethyl) (MOE); [5mC] = 5-methylcytosine; d = 2'-deoxy (DNA)
experimental-endpoint: AST (IU/L)
A number alone suffices; assume IU/L.

Observe how each entry below is paired with its result.
*Q* Recorded AST for ISIS 449711: 3-8-3, 4-8-4, 2-10-2, 3-10-3 or 4-10-4 MOE microwalk gapmer (Table 46) (antisense eA*e[5mC]*dA*dG*dT*dT*dT*d[5mC]*dT*dG*dG*d[5mC]*eA*eG) , please?
*A* 47

*Q* Recorded AST of ISIS 445531: 5-8-5 or 6-8-6 MOE microwalk gapmer (Table 44) (antisense eG*eG*e[5mC]*eA*eT*dT*dG*dG*dT*dG*d[5mC]*dA*d[5mC]*eA*eG*eT*eT*eT) , please.
*A* 47

***
*Q* Quick check: AST of ISIS 416858: MOE gapmer, nucleobases 1275 to 1318 of SEQ ID NO: 1 (Table 8) (antisense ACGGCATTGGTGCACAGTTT; MOE gapmer, wing and gap sizes not given here) ?
*A* 60

*Q* Entry under review: ISIS 416850: MOE gapmer, nucleobases 1275 to 1318 of SEQ ID NO: 1 (Table 8) (antisense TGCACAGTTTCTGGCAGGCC; MOE gapmer, wing and gap sizes not given here) . Reported AST?
*A* 46

*Q* What measured AST goes with ISIS 449709: 3-8-3, 4-8-4, 2-10-2, 3-10-3 or 4-10-4 MOE microwalk gapmer (Table 46) (antisense eG*e[5mC]*eA*e[5mC]*dA*dG*dT*dT*dT*d[5mC]*dT*dG*dG*d[5mC]*eA*eG*eG*e[5mC]) ?
*A* 45

*Q* Consider the substance ISIS 445522: 5-8-5 or 6-8-6 MOE microwalk gapmer (Table 44) (antisense eG*e[5mC]*eA*e[5mC]*eA*dG*dT*dT*dT*d[5mC]*dT*dG*dG*e[5mC]*eA*eG*eG*e[5mC]) and give its measured AST.
*A* 46

*Q* Entry ISIS 449708: 3-8-3, 4-8-4, 2-10-2, 3-10-3 or 4-10-4 MOE microwalk gapmer (Table 46) (antisense eA*e[5mC]*eA*dG*dT*dT*dT*d[5mC]*dT*dG*dG*e[5mC]*eA*eG) : reported AST = ?
*A* 56

----------
Tested on: Factor 11 activity
assay-overview: Factor 11 protein activity, F11 assay based on clotting time (Example 45)
Assay type: in vivo, cynomolgus monkeys
assay-setup: day −5; escalating dose regimen
Each entry below carries its reported percent inhibition of Factor 11 activity, relative to PBS control.
Numeric answer only, unit % assumed.

A selection of reference data follows.
*Q* Value wanted: percent inhibition of Factor 11 activity, relative to PBS control (Factor 11 activity) of entry ISIS 417002: MOE gapmer, nucleobases 1275 to 1318 of SEQ ID NO: 1 (Table 8) (antisense GGTGCACAGTTTCTGGCAGG; MOE gapmer, wing and gap sizes not given here)
*A* 0

*Q* GET /values?readout=percent inhibition of Factor 11 activity, relative to PBS control&system=Factor 11 activity&item= ISIS 416864: MOE gapmer, nucleobases 1275 to 1318 of SEQ ID NO: 1 (Table 8) (antisense GGCAGCGGACGGCATTGGTG; MOE gapmer, wing and gap sizes not given here)
*A* 5

*Q* Request: percent inhibition of Factor 11 activity, relative to PBS control, test system Factor 11 activity, entry ISIS 416850: MOE gapmer, nucleobases 1275 to 1318 of SEQ ID NO: 1 (Table 8) (antisense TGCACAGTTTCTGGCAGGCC; MOE gapmer, wing and gap sizes not given here)
*A* 0

*Q* For the record ISIS 416858: MOE gapmer, nucleobases 1275 to 1318 of SEQ ID NO: 1 (Table 8) (antisense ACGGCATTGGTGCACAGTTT; MOE gapmer, wing and gap sizes not given here) , what value of percent inhibition of Factor 11 activity, relative to PBS control is listed for Factor 11 activity?
*A* 0

Next:
*Q* Find the measured percent inhibition of Factor 11 activity, relative to PBS control: item ISIS 416838: MOE gapmer, nucleobases 1018 to 1042 of SEQ ID NO: 1 (Table 6) (antisense GCAACCGGGATGATGAGTGC; MOE gapmer, wing and gap sizes not given here) , target or system Factor 11 activity.
*A* 0

----------
A collection of substances and their measured Organ weights, Liver
assay-overview: Body and organ weights of cynomolgus monkeys (Example 45);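 note: absolute organ weight in grams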
Type: in vivo
assay-setup: after the animals were euthanized
# output: bare number, implied unit g

*Q* Request the reported Organ weights, Liver associated with ISIS 416864: MOE gapmer, nucleobases 1275 to 1318 of SEQ ID NO: 1 (Table 8) (antisense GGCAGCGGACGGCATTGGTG; MOE gapmer, wing and gap sizes not given here)
*A* 53

*Q* Given the entry ISIS 416858: MOE gapmer, nucleobases 1275 to 1318 of SEQ ID NO: 1 (Table 8) (antisense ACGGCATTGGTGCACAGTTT; MOE gapmer, wing and gap sizes not given here) , report its measured Organ weights, Liver.
*A* 60

*Q* Entry ISIS 416838: MOE gapmer, nucleobases 1018 to 1042 of SEQ ID NO: 1 (Table 6) (antisense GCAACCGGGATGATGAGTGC; MOE gapmer, wing and gap sizes not given here) has what Organ weights, Liver?
*A* 63

Now take the following substance into account.
*Q* Form field: reported Organ weights, Liver of ISIS 417002: MOE gapmer, nucleobases 1275 to 1318 of SEQ ID NO: 1 (Table 8) (antisense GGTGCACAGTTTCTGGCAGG; MOE gapmer, wing and gap sizes not given here)
*A* 51

----------
assay-overview: Hematology assays in cynomolgus monkeys (Example 45)
Format: in vivo
assay-setup: day 57
Where neutrophils equals or exceeds 50%, the correct label is Condition met; where it does not, the label is Condition not met.

These solved cases illustrate the format of a correct answer.
*Q* Exam item: decide whether the reported neutrophils for ISIS 416858: MOE gapmer, nucleobases 1275 to 1318 of SEQ ID NO: 1 (Table 8) (antisense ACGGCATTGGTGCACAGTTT; MOE gapmer, wing and gap sizes not given here) is at least 50%.
*A* Condition not met

*Q* Reported neutrophils at or above 50%? ISIS 417002: MOE gapmer, nucleobases 1275 to 1318 of SEQ ID NO: 1 (Table 8) (antisense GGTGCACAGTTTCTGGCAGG; MOE gapmer, wing and gap sizes not given here)
*A* Condition met

*Q* Assess whether reported neutrophils for ISIS 416864: MOE gapmer, nucleobases 1275 to 1318 of SEQ ID NO: 1 (Table 8) (antisense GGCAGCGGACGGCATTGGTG; MOE gapmer, wing and gap sizes not given here) sits at 50% or higher.
*A* Condition met

Here's the next entry for you.
*Q* Decide: neutrophils of ISIS 416838: MOE gapmer, nucleobases 1018 to 1042 of SEQ ID NO: 1 (Table 6) (antisense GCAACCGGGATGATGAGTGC; MOE gapmer, wing and gap sizes not given here) >= 50%?
*A* Condition not met

----------
aPTT ratio relative to PBS group values, listed per item
Tested on: blood coagulation
assay-overview: PT and aPTT assay in cynomolgus monkeys (Example 46)
Type: in vivo
assay-setup: Day 17; platelet poor plasma; relative to PBS group
Strand notation (5' to 3'): a small letter for the sugar, then the base; units joined by * are phosphorothioate-linked, units joined directly phosphodiester-linked; [ ] holds rarer units or linkages, { } end groups; capitals alone tell only the bases. e = 2'-O-(2-methoxyethyl) (MOE); [5mC] = 5-methylcytosine; d = 2'-deoxy (DNA)
Output spec: single numeric token, no unit.

Some entries whose results are on file:
*Q* Entry ISIS 445522: 5-8-5 or 6-8-6 MOE microwalk gapmer (Table 44) (antisense eG*e[5mC]*eA*e[5mC]*eA*dG*dT*dT*dT*d[5mC]*dT*dG*dG*e[5mC]*eA*eG*eG*e[5mC]) : reported aPTT ratio relative to PBS group = ?
*A* 1.10

*Q* So what's the measured aPTT ratio relative to PBS group for this one? ISIS 449707: 3-8-3, 4-8-4, 2-10-2, 3-10-3 or 4-10-4 MOE microwalk gapmer (Table 46) (antisense e[5mC]*eA*e[5mC]*eA*dG*dT*dT*dT*d[5mC]*dT*dG*dG*e[5mC]*eA*eG*eG)
*A* 0.94

*Q* What measured aPTT ratio relative to PBS group goes with ISIS 449708: 3-8-3, 4-8-4, 2-10-2, 3-10-3 or 4-10-4 MOE microwalk gapmer (Table 46) (antisense eA*e[5mC]*eA*dG*dT*dT*dT*d[5mC]*dT*dG*dG*e[5mC]*eA*eG) ?
*A* 1.05

Further cases:
*Q* Returns the measured aPTT ratio relative to PBS group for the input substance. Input: ISIS 416850: MOE gapmer, nucleobases 1275 to 1318 of SEQ ID NO: 1 (Table 8) (antisense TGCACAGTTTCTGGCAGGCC; MOE gapmer, wing and gap sizes not given here)
*A* 1.01

*Q* Query: aPTT ratio relative to PBS group; subject: ISIS 445531: 5-8-5 or 6-8-6 MOE microwalk gapmer (Table 44) (antisense eG*eG*e[5mC]*eA*eT*dT*dG*dG*dT*dG*d[5mC]*dA*d[5mC]*eA*eG*eT*eT*eT)
*A* 1.05
